- Measured Target: T1, extracellular domain (ECD) of human epidermal growth factor receptor 2 (HER2) (Homo sapiens, UniProt P04626)
- T1 construct: human epidermal growth factor receptor 2 (HER2), extracellular domain; also called HER2/ECD
- Assay Info: SPR; BIAcore T200; HER2/ECD immobilised on a CM5 chip by amine coupling to 1000 RU; IgG flowed in PBST (0.05% Tween 20) at 30 uL/min; regeneration 10 mM glycine pH 1.5; global fit to a 1:1 binding model
- Test Settings: both partners purified

Binder: GH2-95 IgG (antibody, V domains shown, source: HEK293-F, transient transfection, purified (Protein A, Superdex 200)) VH: EVQLVESGGGLVQPGGSLRLSCAASGFTIDSWGIHWVRQAPGKGLEWVAGIGPFWGYTSYADSVKGRFTISADTSKNTAYLQMNSLRAEDTAVYYCARFGIHFDGIMDYWGQGTLVTVSS VL: DIQMTQSPSSLSASVGDRVTITCRASQDVSGGVAWYQQKPGKAPKLLIFGSTWLYSGVPLRFSGSGSGTDFTLTISSLQPEDFATYYCQQYYDWPLTFGQGTKVEIK
Unit Text: nM
Kd: 4.47

Binder: M41 IgG (mouse anti-HER2/ECD) (antibody, V domains shown, mouse VL; L49~L53 YYTSG; L91~L96 VNTLPY; mouse VH; H50~H58 NFHPYNDYTN; H96~H100B HDGYYGA; recombinant IgG from a scFv of an immunized mouse's phage library; source: HEK293-F, transient transfection, purified (Protein A, Superdex 200)) VH: EVQLQQSGAELVKPGASVKMSCKAFGYTFTTYPIEWMKQNHGKSLEWIGNFHPYNDYTNYNEKFKGKAKLTVEKSSTTVYLELSRLTSDDSAVYYCARRHDGYYGAMDYWGQGTSVTVSS VL: DIQMTQTTSSLSASLGDRVTISCRTSQDISNYLNWYQQKPNGTIKLLIYYTSGLYSGVPSRFSGSGSGADYSLTISNVEQEDIATYFCQQVNTLPYTFGGGTKLELK
Unit Text: nM
Kd: 0.0519

Binder: GH2-59 IgG (antibody, V domains shown, source: HEK293-F, transient transfection, purified (Protein A, Superdex 200)) VH: EVQLVESGGGLVRPGGSLRLSCAASGFTIGDWYIHWVRQAPGKGLEWVAGIGPYWGYTSYADSVKGRFTISADTSKNTAYLQMNSLRAEDTAVYYCARFVGDVWHDMDYWGQGTLVAVSS VL: DIQMTQSPSSLSASVGDRVTITCRASQDVSGGVAWYQQKPGKAPKLLISWTGSLYSGVPSRFSGSGSGTDFTLTISSLQPEDFATYYCQQWSDFPITFGQGTKVEIK
Unit Text: nM
Kd: 6.02
